Where do the numbers come from? From PubChem BioAssay (Tox21).

Assay: p53 small molecule agonists, cell-based qHTS assay (AID 1963582); also: % is scaled to controls: 0 for no effect and ±100 for the full control effect
Conditions: HCT-116 p53RE-bla reporter, beta-lactamase FRET ratio, 16 h; series mostly up to 66 µM
From the text: National Center for Advancing Translational Sciences [NCATS] Division of Preclinical Innovation [DPI] U.S. Environmental Protection Agency [EPA] National Institutes of Environmental Health Sciences [NIEHS] National Toxicology Program [NTP] U.S. Food and Drug Administration [FDA] p53, a tumor suppressor protein, is activated following cellular insult, including DNA damage and other cellular stresses. […] The activation of the reporter gene under culture conditions can be detected by fluorescence intensity. […]
Records with an inconclusive call do not appear. Activity calls are given as the source filed them. Calls follow the shape of the dose curve; as a rule, active = well fitted activation curve with a large enough effect in the signal ratio in the repeat runs (not every such curve was filed as active); inconclusive = weak or mixed curves; inactive = flat fitted curve, though single readings scatter; the % refers to the signal ratio.
value-type: activation

Some solved entries appear below for comparison.
In: Please give measured activation of the following entry: `CC(C)OC=O`
Out: inactive

In: Give reported activation value for `C1=COCCC1`
Out: inactive

In: Give me measured activation, please, for this compound: `O=Nc1ccc(NO)cc1`
Out: inactive

In: Identify measured activation corresponding to `O=C(O)c1cccnc1C(=O)O`
Out: inactive

In: Given `O=C1C(c2[nH]c3ccc(S(=O)(=O)O)cc3c2O)=Nc2ccc(S(=O)(=O)O)cc21` , respond with its activation.
Out: inactive

Others:
In: State its activation for this compound: `CC(C)(C)CC(C)(C)c1ccc(O)c(-n2nc3ccccc3n2)c1`
Out: inactive

In: Return activation (reported value) for this compound: `CN(C(=O)c1c(O)c2ccccc2n(C)c1=O)c1ccccc1`
Out: inactive

====

Target: 5-hydroxytryptamine receptor 2A (Homo sapiens)
Assay: 5-hydroxytryptamine receptor 2A (HTR2A) small molecule antagonists, cell-based qHTS assay (AID 1963586); also: % is scaled to controls: 0 for no effect and ±100 for the full control effect; nearly all actives have a fitted effect of over 45% in size
Conditions: HTR2A-CHO cells, DOI-induced calcium flux, fluorescence; series mostly up to 61.5 µM
Results filed as inconclusive are left out. Active and inactive are the calls of the source. Calls come from the whole dose curve.
value-type: activity, negative = inhibition

The cases that follow already have their activity, negative = inhibition on record.
In: Please indicate activity, negative = inhibition recorded for `CC(C)c1ccc(C=O)cc1`
Out: inactive

In: Fill in reported activity, negative = inhibition for this entry: `C=C1C[C@]23C[C@@]1(O)CC[C@H]2[C@@]12C=C[C@H](O)[C@@](C)(C(=O)O1)[C@H]2[C@@H]3C(=O)O`
Out: inactive

In: Quick one: give measured activity, negative = inhibition for `O=C(CCNNC(=O)c1ccncc1)NCc1ccccc1`
Out: inactive

In: Please supply the value of reported activity, negative = inhibition for the item `CC(=O)c1cc2ccccc2s1`
Out: inactive

In: Using the record for C=CC(C)(CCC=C(C)C)OC(=O)CC (stereo not drawn) , state its measured activity, negative = inhibition.
Out: inactive

In: # return recorded activity, negative = inhibition for input `CC(C)(C)c1ccc(C(=O)CCCCl)cc1`
Out: inactive

In: Tell me its activity, negative = inhibition given OCC(O)CN1CCN(c2ccccc2)CC1 (stereo not drawn) as the entry.
Out: inactive

In: Please look at this molecule and report its activity, negative = inhibition: `O=c1oc2c(O)c(O)cc3c(=O)oc4c(O)c(O)cc1c4c23`
Out: -5.93% [at 12.7 µM] (inactive)

In: Give activity, negative = inhibition for the following molecule: `FC(F)(F)c1cccc(Cl)c1`
Out: inactive

In: Using known records, supply activity, negative = inhibition for `O=C(O)/C=C/c1ccccc1`
Out: inactive

---
In: Annotate the molecule `COc1ccc2nc(N)sc2c1` with its measured activity, negative = inhibition.
Out: inactive

In: Identify measured activity, negative = inhibition associated with C=CC(=O)OCCOC1C2CCC1C1CC=CC12 (stereo not drawn)
Out: 14.3% [at 12.7 µM] (inactive)

In: Complete the entry with activity, negative = inhibition for `CCOC(=O)c1ccccc1C`
Out: inactive
